B1: TRIM29 (parent)
chain: FAEKGELRKSIFSESRKPTVSIME

variants of: B1; assay: protein stability index of a GFP-peptide fusion (GPS, HEK-293T) (PSI 1-6); higher = more stable; conditions: c terminus: a fixed tail appended;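 further: lentivirally expressed fusions sorted by FACS into six bins by GFP to DsRed ratio, PSI derived from sequencing read proportions per bin multiplied by bin number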
Label YES for high-side protein stability index (at or above 2) and NO for low-side protein stability index (below it).

>>> assigned_label("M23E")
"NO"
>>> assigned_label("M23K")
"NO"
>>> assigned_label("E3K")
"YES"

API: above_or_equal(metric=protein stability index, cutoff=2) for item `T19F` NO

Decide: protein stability index of `L7R` >= 2? NO
